# Tested on: NCI-H460 lung
# MEASUREMENT_DESCRIPTION: NCI-60 one-dose screen, 48 h
# PARTICULARS: 10 µM unless noted
This is part of a sample that, as a whole, favours compounds with a hit. Of some 83,000 tested, about 20% had one in any assay. Active and inactive are the calls of the source. How the source made its calls: active means growth percent below 10; inactive means the rest.
Assign a class; possible classes are active, inactive

Entry CN1CCN(c2ccc(-c3cc4c(Nc5ccc(F)c(Cl)c5)ncnn4c3)cc2)CC1 : call = ? active

Tell me the recorded outcome of this test for CC1(C)C2CC1C1(/C=N/NC(N)=S)C(C2)C(C#N)(C#N)C1(C#N)C#N (centres undefined) . inactive

Returns: the outcome recorded for Cc1ccc(C2CC(c3ccc(Nc4ccnc5cc(Cl)ccc45)cc3)=NN2C=O)cc1 (centres undefined) in this assay. inactive

Further cases:
Answer briefly: the call reported for CCN(CC)S(=O)(=O)c1ccc(NC(=O)CSc2nnc(C)n2-c2ccccc2)cc1 in this assay. inactive

Short answer needed: outcome of this test for COC(=O)CCC/C=C\C[C@H]1C=CC(=O)/C1=C/C[C@@H](O)CCc1cccc(C(F)(F)F)c1 ? active

Could you kindly confirm the outcome this assay logged for CC(C)C(=O)Nc1ccc(-c2nc(-c3cccc(OCCN4CCOCC4)c3)c(-c3ccnc(Br)c3)[nH]2)cc1 ? inactive

Short answer needed: outcome of this test for C/C(=N/NC(N)=S)c1sc(Nc2cccc(Cl)c2)nc1C ? inactive

Each molecule tested received a call. Report the one for Nc1nc(-c2cccc3ccccc23)cc2ccccc12 . active

Per the assay record, what outcome was assigned to O=C(N/N=C/[C@@H](O)[C@H](O)[C@H](O)CO)c1ccc(NC(=O)c2cccnc2)cc1 ? inactive

---

# Tested on: UO-31 renal
# MEASUREMENT_DESCRIPTION: NCI-60 one-dose screen, 48 h (100 = growth as untreated, 0 = no growth, -100 = all killed)
# PARTICULARS: 10 µM unless noted
This is part of a sample that, as a whole, favours compounds with a hit. Of some 83,000 tested, about 20% had one in any assay.
Field: label. Allowed values: satisfied (growth < 20%) or not satisfied (growth >= 20%).

These solved cases illustrate the format of a correct answer.
Input CCOC(=O)c1c(C)oc2ncnc(N3CCN(C(=O)COc4ccc(C(C)(C)C)cc4)CC3)c12 ; condition: growth strictly below 20%. Does it hold? not satisfied

Regarding O=CN1N=C(c2ccc(Nc3ccnc4cc(Cl)ccc34)cc2)CC1c1ccccc1 (centres undefined) , kindly confirm whether its growth is beneath 20%. not satisfied

Does C[C@]12CC[C@@H]3c4cc(OC(F)F)c(OS(N)(=O)=O)cc4CC[C@H]3[C@@H]1CC[C@@H]2O have growth strictly under 20%? not satisfied

Confirm or reject: growth of CCN1C(=O)N(CC)C2Nn3c(s/c(=C4\C(=O)N(CCC(C)C)c5ccccc54)c3=O)=NC21 (centres undefined) lies strictly below 20% not satisfied

Attention now turns to another entry.
Record CCc1cccc2c3c(sc12)C(c1ccc(F)cc1)C(C#N)=C(N)O3 (centres undefined) : is its growth strictly below 20%? not satisfied

---

# Tested on: T-47D breast
# MEASUREMENT_DESCRIPTION: NCI-60 one-dose screen, 48 h
# PARTICULARS: 10 µM unless noted
About 83,000 compounds went through this panel and 20% of them were active in at least one assay; those are over-represented in the sample as a whole. Activity calls are given as the source filed them. Rule for the calls: active = growth percent below 10; inactive = the rest.
Please reply with one of these outcomes: Y (active), N (inactive)

As a guide, the following entries are already answered.
Which result was noted for this molecule in the test: COc1cccc(OC)c1C(=O)N[C@@H]1C(=O)N2[C@@H]1SC(C)(C)[C@@H]2C(=O)O N

Given CCOC(=O)c1c2c(n(-c3ccc(C#N)cc3)c1-c1ccccc1)C=CCC2 , state the outcome it received in this test. N

Short answer needed: outcome of this test for COc1cccc(-c2nc(-c3ccc(NC(=O)OC(C)C)cc3)[nH]c2-c2ccnc(Br)c2)c1 ? Y

Please indicate how the test categorized COc1ccc(CNC(=O)[C@H](O)[C@@H](N)Cc2ccccc2)cc1 . N

Called result for CC(C)c1cc(C(C)C)c(S(=O)(=O)Oc2ccc(NC(=O)c3ccc(Cl)cc3)cc2)c(C(C)C)c1 Y

So what was the verdict on CCCCC[C@H](O)C/C=C1/C(=O)C=C[C@@H]1C/C=C\CCCC(=O)OC in this test? N

Which result was noted for this molecule in the test: O=C1NC(=O)C(Cn2cnc3ccccc32)N1 (centres undefined) N

Which outcome was assigned to O=C(O)c1cn(C2CC2)c2cc(N3CCN(C(=O)Nc4nc(-c5ccccc5)cs4)CC3)c(F)cc2c1=O in this test? N

Let us examine a further case.
Lab log entry: CCCCCCn1c(-c2ccc(C(=O)O/N=C(\N)c3ccc4ccccc4c3)cc2)nc(-c2ccccc2)c1-c1ccccc1 — outcome as called in the assay? N

These entries and their values trace back to PubChem BioAssay (NCI).
